Recorded values, source ChEMBL document CHEMBL1126082.

- Assay system: UniProt:P25099
- Sequence (P25099 whole entry): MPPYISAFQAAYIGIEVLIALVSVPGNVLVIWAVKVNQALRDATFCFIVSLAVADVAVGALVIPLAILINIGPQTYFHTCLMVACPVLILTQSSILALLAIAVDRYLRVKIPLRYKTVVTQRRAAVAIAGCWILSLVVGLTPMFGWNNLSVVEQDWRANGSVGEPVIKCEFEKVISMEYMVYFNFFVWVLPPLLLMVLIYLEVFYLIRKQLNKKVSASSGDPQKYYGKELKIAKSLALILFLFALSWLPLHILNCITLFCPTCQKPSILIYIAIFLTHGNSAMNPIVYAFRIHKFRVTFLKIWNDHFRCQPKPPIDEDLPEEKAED
pKi: −log10 of the molar value.
Catalogue of compounds with associated pKi
Endpoint name: pKi

[[record]]
compound = "Nc1nc(C#CC2(O)CCCCCC2)nc2c1ncn2[C@@H]1O[C@H](CO)[C@@H](O)[C@H]1O"
endpoint_name = "pKi"
operator_symbol = "="
endpoint_value = 7.57

[[record]]
compound = "Nc1nc(C#CC2(O)CCCC2)nc2c1ncn2C1O[C@H](CO)[C@@H](O)[C@H]1O (some centres undefined)"
endpoint_name = "pKi"
operator_symbol = "="
endpoint_value = 7.96

[[record]]
compound = "Nc1nc(C#CCCc2ccccc2)nc2c1ncn2[C@@H]1O[C@H](CO)[C@@H](O)[C@H]1O"
endpoint_name = "pKi"
operator_symbol = "="
endpoint_value = 6.40

[[record]]
compound = "Nc1nc(C#CCCC2CCCC2)nc2c1ncn2C1O[C@H](CO)[C@@H](O)[C@H]1O (some centres undefined)"
endpoint_name = "pKi"
operator_symbol = "="
endpoint_value = 6.87

[[record]]
compound = "Nc1nc(C#CCCCC2CCCCC2)nc2c1ncn2C1O[C@H](CO)[C@@H](O)[C@H]1O (some centres undefined)"
endpoint_name = "pKi"
operator_symbol = "<"
endpoint_value = 6.64

[[record]]
compound = "Nc1nc(C#CCCC2CCCCC2)nc2c1ncn2C1O[C@H](CO)[C@@H](O)[C@H]1O (some centres undefined)"
endpoint_name = "pKi"
operator_symbol = "="
endpoint_value = 6.50

[[record]]
compound = "COc1cc(OC)cc(C(CNc2ncnc3c2ncn3[C@@H]2O[C@H](CO)[C@@H](O)[C@H]2O)c2ccccc2C)c1 (some centres undefined)"
endpoint_name = "pKi"
operator_symbol = "="
endpoint_value = 6.97

[[record]]
compound = "CC(O)C#Cc1nc(N)c2ncn([C@@H]3O[C@H](CO)[C@@H](O)[C@H]3O)c2n1 (some centres undefined)"
endpoint_name = "pKi"
operator_symbol = "="
endpoint_value = 7.82

[[record]]
compound = "CCCCCCC#Cc1nc(N)c2ncn([C@@H]3O[C@H](CO)[C@@H](O)[C@H]3O)c2n1"
endpoint_name = "pKi"
operator_symbol = "="
endpoint_value = 6.88


---

Reported Ki, Adenosine A2 receptor (Rattus norvegicus, UniProt P29276+P30543).
Endpoint name: Ki (nM)

[[record]]
compound = "Nc1nc(C#CCCCC2CCCCC2)nc2c1ncn2C1O[C@H](CO)[C@@H](O)[C@H]1O (stereo partly drawn)"
endpoint_value = 46

[[record]]
compound = "Nc1nc(C#CC2(O)CCCC2)nc2c1ncn2C1O[C@H](CO)[C@@H](O)[C@H]1O (stereo partly drawn)"
endpoint_value = 3.3

[[record]]
compound = "CC(O)C#Cc1nc(N)c2ncn([C@@H]3O[C@H](CO)[C@@H](O)[C@H]3O)c2n1 (stereo partly drawn)"
endpoint_value = 18

[[record]]
compound = "COc1cc(OC)cc(C(CNc2ncnc3c2ncn3[C@@H]2O[C@H](CO)[C@@H](O)[C@H]2O)c2ccccc2C)c1 (stereo partly drawn)"
endpoint_value = 6.9

[[record]]
compound = "Nc1nc(C#CC(O)c2ccccc2)nc2c1ncn2[C@@H]1O[C@H](CO)[C@@H](O)[C@H]1O (stereo partly drawn)"
endpoint_value = 1.9

[[record]]
compound = "Nc1nc(C#CC2CCCC2)nc2c1ncn2[C@@H]1O[C@H](CO)[C@@H](O)[C@H]1O"
endpoint_value = 12

[[record]]
compound = "CCCC(O)C#Cc1nc(N)c2ncn(C3O[C@H](CO)[C@@H](O)[C@H]3O)c2n1 (stereo partly drawn)"
endpoint_value = 1.8

[[record]]
compound = "CC(C)(O)C#Cc1nc(N)c2ncn([C@@H]3O[C@H](CO)[C@@H](O)[C@H]3O)c2n1"
endpoint_value = 19

[[record]]
compound = "Nc1nc(C#Cc2ccccc2)nc2c1ncn2[C@@H]1O[C@H](CO)[C@@H](O)[C@H]1O"
endpoint_value = 109

[[record]]
compound = "Nc1nc(C#CC2(O)CCCCCC2)nc2c1ncn2[C@@H]1O[C@H](CO)[C@@H](O)[C@H]1O"
endpoint_value = 1.1

[[record]]
compound = "Nc1nc(C#CCCC2CCCC2)nc2c1ncn2C1O[C@H](CO)[C@@H](O)[C@H]1O (stereo partly drawn)"
endpoint_value = 3.4

[[record]]
compound = "CCCCCC(O)C#Cc1nc(N)c2ncn(C3O[C@H](CO)[C@@H](O)[C@H]3O)c2n1 (stereo partly drawn)"
endpoint_value = 2

[[record]]
compound = "Nc1nc(C#CCCc2ccccc2)nc2c1ncn2[C@@H]1O[C@H](CO)[C@@H](O)[C@H]1O"
endpoint_value = 37

[[record]]
compound = "CCCCCCC#Cc1nc(N)c2ncn([C@@H]3O[C@H](CO)[C@@H](O)[C@H]3O)c2n1"
endpoint_value = 7.9

[[record]]
compound = "Nc1nc(C#CCC2CCCC2)nc2c1ncn2[C@@H]1O[C@H](CO)[C@@H](O)[C@H]1O"
endpoint_value = 2.3

[[record]]
compound = "Nc1nc(C#CCCC2CCCCC2)nc2c1ncn2C1O[C@H](CO)[C@@H](O)[C@H]1O (stereo partly drawn)"
endpoint_value = 26

[[record]]
compound = "Nc1nc(C#CCO)nc2c1ncn2[C@@H]1O[C@H](CO)[C@@H](O)[C@H]1O"
endpoint_value = 20

[[record]]
compound = "Nc1nc(C#CC2CCCCC2)nc2c1ncn2C1O[C@H](CO)[C@@H](O)[C@H]1O (stereo partly drawn)"
endpoint_value = 10

